The measurements presented in this section are drawn from patent US20020188323A1.

- Procedure Summary: Dissociation of HClO
- Assay type: physicochemical
- Condition Notes: −log Ka
Value Kind: pKa

pKa for OCl ?
7.4
